Data provenance: patent US11339130B1

# SYSTEM_NAME: Human Calpain 1/NS1 (Homo sapiens)
# Sequence (P07384 whole entry, one chain of several): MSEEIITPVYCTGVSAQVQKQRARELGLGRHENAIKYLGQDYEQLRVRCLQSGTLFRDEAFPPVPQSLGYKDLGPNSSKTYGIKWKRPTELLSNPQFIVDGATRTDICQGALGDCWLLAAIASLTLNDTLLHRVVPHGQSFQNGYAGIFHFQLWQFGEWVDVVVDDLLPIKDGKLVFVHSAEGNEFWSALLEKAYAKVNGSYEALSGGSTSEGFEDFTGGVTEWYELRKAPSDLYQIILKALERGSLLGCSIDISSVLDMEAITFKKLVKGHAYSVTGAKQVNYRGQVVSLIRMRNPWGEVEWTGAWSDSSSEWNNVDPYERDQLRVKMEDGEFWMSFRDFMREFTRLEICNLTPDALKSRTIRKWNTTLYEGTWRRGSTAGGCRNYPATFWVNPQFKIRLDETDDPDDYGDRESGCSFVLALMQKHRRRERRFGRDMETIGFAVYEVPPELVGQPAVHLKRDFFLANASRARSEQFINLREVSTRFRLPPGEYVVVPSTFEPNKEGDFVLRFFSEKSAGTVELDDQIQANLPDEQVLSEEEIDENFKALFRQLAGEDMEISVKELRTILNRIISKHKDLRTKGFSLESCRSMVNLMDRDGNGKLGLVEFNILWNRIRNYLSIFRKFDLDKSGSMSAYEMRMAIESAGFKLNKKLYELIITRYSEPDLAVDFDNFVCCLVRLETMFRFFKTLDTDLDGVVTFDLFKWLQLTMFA
# PROTOCOL: Calpain inhibition continuous fluorescence (FRET) assay, Human Calpain 1/NS1
# Type: biochemical
# CONDITION_INFO: read-out: Human Calpain 1/NS1 IC50
ASSAY_METRIC: IC50

Cc1cc(C(=O)NC(Cc2ccccc2)C(O)C(N)=O)n(-c2ccnc(Cl)n2)n1 (stereo not shown) = > 10 µM

GET /values?readout=IC50&system=Human Calpain 1/NS1 (Homo sapiens)&item= Cc1ccc(F)c(-c2nn(C(F)F)cc2C(=O)NC(Cc2ccccc2)C(=O)C(N)=O)c1 (stereo not shown)
< 3 µM

GET /values?readout=IC50&system=Human Calpain 1/NS1 (Homo sapiens)&item= Cn1cc(C(=O)NC(Cc2ccccc2)C(=O)C(N)=O)c(-c2cccc3cnccc23)n1 (stereo not shown)
< 3 µM

GET /values?readout=IC50&system=Human Calpain 1/NS1 (Homo sapiens)&item= NC(=O)C(=O)C(Cc1ccccc1)NC(=O)c1cn(C(F)F)nc1-c1cnccn1 (stereo not shown)
< 3 µM

GET /values?readout=IC50&system=Human Calpain 1/NS1 (Homo sapiens)&item= CNC(=O)CNC(=O)C(=O)[C@H](Cc1ccccc1)NC(=O)c1cn(C)nc1-c1ccccc1
< 3 µM

GET /values?readout=IC50&system=Human Calpain 1/NS1 (Homo sapiens)&item= Cc1nc(-c2ccccc2)c(C(=O)NC(Cc2cc(Cl)cc(Cl)c2)C(=O)C(N)=O)o1 (stereo not shown)
< 3 µM

GET /values?readout=IC50&system=Human Calpain 1/NS1 (Homo sapiens)&item= Cc1ccncc1-c1nn(C(F)F)cc1C(=O)NC(Cc1ccccc1)C(=O)C(N)=O (stereo not shown)
< 3 µM

GET /values?readout=IC50&system=Human Calpain 1/NS1 (Homo sapiens)&item= NC(=O)C(=O)C(Cc1ccccc1)NC(=O)c1cn(C(F)F)nc1-c1cccc2c1OCCO2 (stereo not shown)
< 3 µM

GET /values?readout=IC50&system=Human Calpain 1/NS1 (Homo sapiens)&item= Cc1nc(-c2ccccc2)c(C(=O)N[C@H](C=O)Cc2ccccc2)o1
< 3 µM

----------
# SYSTEM_NAME: Human Calpain 9/NS1 (Homo sapiens, UniProt O14815)
# Sequence (O14815 whole entry): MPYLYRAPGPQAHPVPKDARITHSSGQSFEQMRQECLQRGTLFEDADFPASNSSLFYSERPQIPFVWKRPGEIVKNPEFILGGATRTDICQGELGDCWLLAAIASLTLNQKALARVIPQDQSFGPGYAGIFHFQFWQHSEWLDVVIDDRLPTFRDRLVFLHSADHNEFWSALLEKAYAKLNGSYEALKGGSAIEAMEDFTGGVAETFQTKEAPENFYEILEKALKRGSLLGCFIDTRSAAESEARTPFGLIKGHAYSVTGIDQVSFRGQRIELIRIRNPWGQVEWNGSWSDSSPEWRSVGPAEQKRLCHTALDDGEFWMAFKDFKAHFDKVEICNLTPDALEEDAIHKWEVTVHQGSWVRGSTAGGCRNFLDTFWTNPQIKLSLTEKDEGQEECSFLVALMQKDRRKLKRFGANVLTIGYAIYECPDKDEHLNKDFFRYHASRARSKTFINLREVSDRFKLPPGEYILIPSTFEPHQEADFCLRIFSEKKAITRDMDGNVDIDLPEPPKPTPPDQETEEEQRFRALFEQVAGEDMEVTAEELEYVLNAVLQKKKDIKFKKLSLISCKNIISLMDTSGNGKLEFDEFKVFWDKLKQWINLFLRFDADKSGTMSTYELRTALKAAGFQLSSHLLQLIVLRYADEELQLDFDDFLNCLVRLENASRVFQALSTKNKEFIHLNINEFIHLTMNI
# Sequence (P04632 whole entry partner): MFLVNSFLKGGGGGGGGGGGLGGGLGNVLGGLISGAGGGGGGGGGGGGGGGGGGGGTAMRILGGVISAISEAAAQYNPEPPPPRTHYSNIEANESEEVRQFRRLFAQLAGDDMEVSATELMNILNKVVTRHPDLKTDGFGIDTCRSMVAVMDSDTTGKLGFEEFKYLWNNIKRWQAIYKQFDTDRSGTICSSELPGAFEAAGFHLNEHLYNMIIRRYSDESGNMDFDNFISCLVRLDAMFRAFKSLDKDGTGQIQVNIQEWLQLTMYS
# PROTOCOL: Calpain inhibition continuous fluorescence (FRET) assay, Human Calpain 9/NS1
# Type: biochemical
# CONDITION_INFO: Column C; read-out: Human Calpain 9/NS1 IC50
ASSAY_METRIC: IC50

Cc1nc(C(=O)N[C@@H](Cc2ccccc2)C(=O)C(N)=O)c(-c2ccccc2)s1 [Compound 54] = < 3 µM
Cc1cc(C(F)(F)F)cc(-n2nc(C)cc2C(=O)N[C@@H](Cc2ccccc2)C(=O)C(N)=O)n1 [Compound 234] = < 3 µM
Cc1cc(C(=O)N[C@@H](Cc2ccccc2)C(=O)C(=O)NC2CC2)n(-c2cnccn2)n1 [Compound 85] = < 3 µM
O=C[C@H](Cc1ccccc1)NC(=O)c1cncn1-c1nc2ccccc2s1 [Compound 29] = < 3 µM
Cc1cc(C(=O)N[C@@H](Cc2ccccc2)C(=O)C(N)=O)n(-c2ccc(-c3ccccc3F)cc2)n1 [Compound 217] = < 3 µM
Cc1nc(-c2ccc(F)cc2)c(C(=O)N[C@@H](Cc2ccccc2)C(=O)C(N)=O)o1 [Compound 248] = < 3 µM
Cc1cc(C(=O)N[C@@H](Cc2ccccc2)C(=O)C(N)=O)nn1-c1nc(-c2ccccc2)cs1 [Compound 80] = 3 to 10 µM

Okay, now this compound:
# IC50 lookup, item CC(C)c1cc(C(=O)N[C@@H](Cc2ccccc2)C(=O)C(N)=O)n(-c2ccccc2)n1 [Compound 117]
3 to 10 µM
